Data provenance: patent US8735601B2

- ASSAY TEXT: Absorption and emission spectra of dyes in different solvents
- Type: physicochemical
- Set-up: scale not given here
- EXPERIMENTAL CONDITIONS: solvent Water
# ε1 (molar extinction coefficient) per entry
MEASURED PARAMETER: ε1 (molar extinction coefficient)

> print(dat)
                               input.smiles    reported
1  CCN(CC)C(=C\C1=[N+](CC)c2ccccc2C1(C)C)/C=C/C=C1/N(CC)c2ccccc2C1(C)C  2.9 cm^−1M
2  CCN1/C(=C/C=C/C(N)=C/C2=[N+](CC)c3ccccc3C2(C)C)C(C)(C)c2ccccc21  3.6 cm^−1M
3  CCN1/C(=C/C=C/C(=C/C2=[N+](CC)c3ccccc3C2(C)C)NCCO)C(C)(C)c2ccccc21  2.1 cm^−1M
4  CCN1/C(=C/C=C/C(=C/C2=[N+](CC)c3ccccc3C2(C)C)Nc2ccccc2)C(C)(C)c2ccccc21  1.7 cm^−1M
